# TARGET ENTITY: Rap guanine nucleotide exchange factor 3 (Homo sapiens) (UniProt O95398)
# ASSAY DETAILS: Counterscreen qHTS for agonist of cAMP-regulated guanine nucleotide exchange factor 3 (EPAC1) (AID 1645889); also: % of control where 0% means no effect; nearly all actives have a fitted effect of over 40% in size
# CONDITION PARAMETERS: EPAC1 Rap1B-BODIPY-GDP exchange, fluorescence; series mostly up to 154 µM
Records with an inconclusive call do not appear. Activity calls are given as the source filed them. Calls follow the shape of the dose curve; as a rule, active = well fitted activation curve with a large enough effect; inconclusive = small, poorly fitted or top-dose-only effect, or another doubt; inactive = no such curve, though single readings can be large or run the other way.
MEASURED PARAMETER: activation

These recorded examples may help you get a feel for the data.
| COMPOUND | TARGET ENTITY | MEASURED PARAMETER | VAL |
| --- | --- | --- | --- |
| CCN1/C(=C/C(C)=C/c2sc3ccccc3[n+]2CC)Sc2ccccc21 | Rap guanine nucleotide exchange factor 3 (Homo sapiens) (UniProt O95398) | activation | 12.5% [at 30.8 µM] (inactive) |
| O=[N+]([O-])c1cc(-c2ccccc2)cc([N+](=O)[O-])c1O | Rap guanine nucleotide exchange factor 3 (Homo sapiens) (UniProt O95398) | activation | inactive |
| Cc1ccc(C(=O)Nc2sc(C)c(C)c2C(=O)c2ccccc2)cc1 | Rap guanine nucleotide exchange factor 3 (Homo sapiens) (UniProt O95398) | activation | -4.34% [at 30.8 µM] (inactive) |
| c1ccc2c(c1)oc1c(-c3ccc4nccn4c3)cccc12 | Rap guanine nucleotide exchange factor 3 (Homo sapiens) (UniProt O95398) | activation | 14.4% [at 30.8 µM] (inactive) |
| COc1ccc(C(=O)c2ccccc2)c2c(O)ccc(C(=O)c3ccccc3)c12 | Rap guanine nucleotide exchange factor 3 (Homo sapiens) (UniProt O95398) | activation | inactive |

// fetch activation given entry `CCCC[C@@H]1CNC(=O)C(=O)N1CCc1cccc(F)c1` -0.443% [at 30.8 µM] (inactive)

// fetch activation given entry CC(C)CCNC1c2ccccc2C(=O)N1Cc1ccccc1 (centres undefined) 2.24% [at 30.8 µM] (inactive)

// fetch activation given entry `CC(=N\NC(=O)c1ccccc1)/C(=N/O)C(=O)Nc1ccccc1` 27.9% [at 30.8 µM] (inactive)

// fetch activation given entry `Cc1cc2ccccn2c1C(=O)c1ccc(C#N)cc1` inactive
